The compounds below have reported log10 MIC for Tr. MENTAGROPHYTES.
// do not treat as linear: log10 of MIC, unit µg/mL

Observe how each entry below is paired with its result.
test smiles: C=CCc1c(O)cc(O)c(C(=O)C2CCCCC2)c1O
log10 MIC: 1.11
//
test smiles: CCC(=O)c1c(O)cc(O)c(CC=C(C)C)c1O
log10 MIC: 1.40
//
test smiles: CCCC(=O)c1c(O)c2c(c(C(=O)CCC)c1O)OC(C)(C)CC2
log10 MIC: 2.00
//
test smiles: CC(C)=CCc1c(O)cc(O)c(C(=O)CCC(C)C)c1O
log10 MIC: 0.78
//
test smiles: C=CCc1c(O)cc(O)c(C(=O)CCCC)c1O
log10 MIC: 1.11

Now for another entry.
Dear colleague, please send me the reported log10 MIC for CCCCCCCCC(=O)c1c(O)cc(O)c(Cc2ccccc2)c1O when you can.
0.70

// provenance: patent US4503256A
